Numbers sourced from patent US20210246166A1.

TESTED ON: recombinant human MASP2 active protease (amino acids 297-686, C-terminal His Tag) (human, UniProt O00187 297-686)
Sequence (O00187 other isoform, or with tags, fused parts or gaps limits assumed): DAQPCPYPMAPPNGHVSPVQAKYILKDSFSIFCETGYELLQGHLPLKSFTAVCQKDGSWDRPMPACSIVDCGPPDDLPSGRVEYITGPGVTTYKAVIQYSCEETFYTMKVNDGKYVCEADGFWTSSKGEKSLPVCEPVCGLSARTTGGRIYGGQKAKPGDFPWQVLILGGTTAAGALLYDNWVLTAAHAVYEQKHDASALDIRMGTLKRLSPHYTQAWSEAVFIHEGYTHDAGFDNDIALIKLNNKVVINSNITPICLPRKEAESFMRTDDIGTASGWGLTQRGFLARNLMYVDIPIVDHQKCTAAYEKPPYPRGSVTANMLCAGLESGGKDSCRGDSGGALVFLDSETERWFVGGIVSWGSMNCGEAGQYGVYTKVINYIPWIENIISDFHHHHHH
PROCEDURE DETAILS: cell-based or functional assay
Bridge positions count the residues as written; N and C are the ends. Square brackets hold non-standard residues; d marks the D form. Ends that are not written are not given here. * marks the point of attachment. X5 = Tetrahydropyranyl‑4‑acetic acid, O=C(CC1CCOCC1)*; tBuAla = CC(C)(C)C[C@H](N)C(=O)O; NMeC = CN[C@@H](CS)C(=O)O; PEG2 = NCCOCCOCCC(=O)O; Sar = CNCC(=O)O
Catalogue of binders with associated human MASP2 IC50

{"BINDER": "[(2S,3S)‑2‑((3R)-3-Amino-2-oxopyrrolidin-1-yl)‑3‑methylpentanoic acid]CSRSLPPICIAD-OH (disulfide 2-10)", "MEASUREMENT UNITS": "nM", "human MASP2 IC50": 360}
{"BINDER": "Tranexamic-ICSRSLPPI[NMeC]IPD-NH2 (disulfide 2-10) [Example 364: (Tranexamic)-IC+SRSLPPI-((N-Me)C)+IPD-NH2]", "MEASUREMENT UNITS": "nM", "human MASP2 IC50": 98}
{"BINDER": "[Sar]ICSRSLPPICIP[dD]-OH (disulfide 3-11; N-terminus assumed; SMILES CC[C@H](C)[C@H](NC(=O)CNC)C(=O)N[C@H]1CSSC[C@@H](C(=O)N[C@H](C(=O)N2CCC[C@H]2C(=O)N[C@H](CC(=O)O)C(=O)O)[C@@H](C)CC)NC(=O)[C@H]([C@@H](C)CC)NC(=O)[C@@H]2CCCN2C(=O)[C@@H]2CCCN2C(=O)[C@H](CC(C)C)NC(=O)[C@H](CO)NC(=O)[C@H](CCCNC(=N)N)NC(=O)[C@H](CO)NC1=O) [Example 312: ((N-Me)G)-IC+SRSLPPIC+IPd-OH]", "MEASUREMENT UNITS": "nM", "human MASP2 IC50": 530}
{"BINDER": "[PEG2]GICSRSLPPICIPD-OH (disulfide 4-12; N-terminus assumed; SMILES CC[C@H](C)[C@H](NC(=O)CNC(=O)CCOCCOCCN)C(=O)N[C@H]1CSSC[C@@H](C(=O)N[C@H](C(=O)N2CCC[C@H]2C(=O)N[C@@H](CC(=O)O)C(=O)O)[C@@H](C)CC)NC(=O)[C@H]([C@@H](C)CC)NC(=O)[C@@H]2CCCN2C(=O)[C@@H]2CCCN2C(=O)[C@H](CC(C)C)NC(=O)[C@H](CO)NC(=O)[C@H](CCCNC(=N)N)NC(=O)[C@H](CO)NC1=O) [Example 409: (PEG1(10 atoms))-GIC+SRSLPPIC+IPD-OH]", "MEASUREMENT UNITS": "nM", "human MASP2 IC50": 570}
{"BINDER": "X5-ICSRS[tBuAla]PPICIPD-NH2 (disulfide 2-10; SMILES CC[C@H](C)[C@H](NC(=O)CC1CCOCC1)C(=O)N[C@H]1CSSC[C@@H](C(=O)N[C@H](C(=O)N2CCC[C@H]2C(=O)N[C@@H](CC(=O)O)C(N)=O)[C@@H](C)CC)NC(=O)[C@H]([C@@H](C)CC)NC(=O)[C@@H]2CCCN2C(=O)[C@@H]2CCCN2C(=O)[C@H](CC(C)(C)C)NC(=O)[C@H](CO)NC(=O)[C@H](CCCNC(=N)N)NC(=O)[C@H](CO)NC1=O) [Example 342: (Tetrahydropyranyl-4-acetic acid)-IC+SRS-((tBu)A)-PPIC+IPD-NH2]", "MEASUREMENT UNITS": "nM", "human MASP2 IC50": 17}
